molecular target: T1, human factor IX (human, UniProt P00740 47-461, 12 glutamic acid residues of the GLA domain are post-translationally γ-carboxylated); assay: SPR, IgG captured on anti-human IgG Fc, human FIX as analyte
T1 construct: Zymogen used as analyte in SPR, reconstituted at 1 mg/ml; also called FIX; Human FIX (MW ~55 KDa)
T1 sequence (P00740 47-461 limits assumed): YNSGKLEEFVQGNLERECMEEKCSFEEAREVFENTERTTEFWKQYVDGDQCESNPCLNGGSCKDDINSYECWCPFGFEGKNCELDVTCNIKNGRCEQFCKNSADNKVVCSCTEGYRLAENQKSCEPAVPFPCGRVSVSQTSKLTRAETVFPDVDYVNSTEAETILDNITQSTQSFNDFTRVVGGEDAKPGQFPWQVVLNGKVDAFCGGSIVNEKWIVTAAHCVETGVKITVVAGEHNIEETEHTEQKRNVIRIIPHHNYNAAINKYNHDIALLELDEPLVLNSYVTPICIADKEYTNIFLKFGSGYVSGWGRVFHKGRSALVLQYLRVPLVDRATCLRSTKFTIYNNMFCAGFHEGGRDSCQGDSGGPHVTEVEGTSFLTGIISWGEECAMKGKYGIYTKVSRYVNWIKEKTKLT
Each entry below carries its recorded kon.
attribute measured: kon (M⁻¹ s⁻¹)

[[record]]
binder = "NINA-0444.0128 (antibody, V domains shown) VH: EVQLVESGGGFVQPGGSLRLSCAVSGFTFNSYWMSWVRQAPGKGLEWVANINQDGSEKFYVASVKGRFTMSRDNAKKSVYVQMNSLRAEDTAVYYCAREGYSSTSYYGMDVWGQGTTVTVSS VL: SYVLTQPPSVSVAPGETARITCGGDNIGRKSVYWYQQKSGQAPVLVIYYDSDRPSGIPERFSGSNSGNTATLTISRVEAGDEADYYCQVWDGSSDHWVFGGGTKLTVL"
attribute_measured = "kon"
units_text = "M⁻¹ s⁻¹"
value_reported = 216000

[[record]]
binder = "NINA-0438.0128 (antibody, V domains shown) VH: EVQLVESGGGFVQPGGSLRLSCAVSGFTFNSYWMSWVRQAPGKGLEWVANINQDGSEKFYVASVKGRFTMSRDNAKKSVYVQMNSLRAEDTAVYYCAREGYSSLSYYGMDVWGQGTTVTVSS VL: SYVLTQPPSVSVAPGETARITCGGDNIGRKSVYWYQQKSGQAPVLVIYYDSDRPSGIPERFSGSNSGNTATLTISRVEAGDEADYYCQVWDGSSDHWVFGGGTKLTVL"
attribute_measured = "kon"
units_text = "M⁻¹ s⁻¹"
value_reported = 230000

[[record]]
binder = "NINA-0128 (antibody, V domains shown) VH: EVQLVESGGGFVQPGGSLRLSCAVSGFTFNSYWMSWVRQAPGKGLEWVANINQDGSEKFYVASVKGRFTMSRDNAKKSVYVQMNSLRAEDTAVYYCAREGYSSSSYYGMDVWGQGTTVTVSS VL: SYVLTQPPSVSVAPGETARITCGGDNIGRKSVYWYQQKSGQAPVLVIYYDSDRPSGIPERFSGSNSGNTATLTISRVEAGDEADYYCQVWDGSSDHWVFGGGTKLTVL"
attribute_measured = "kon"
units_text = "M⁻¹ s⁻¹"
value_reported = 292000

[[record]]
binder = "NINA-0442.0128 (antibody, V domains shown) VH: EVQLVESGGGFVQPGGSLRLSCAVSGFTFNSYWMSWVRQAPGKGLEWVANINQDGSEKFYVASVKGRFTMSRDNAKKSVYVQMNSLRAEDTAVYYCAREGYSSQSYYGMDVWGQGTTVTVSS VL: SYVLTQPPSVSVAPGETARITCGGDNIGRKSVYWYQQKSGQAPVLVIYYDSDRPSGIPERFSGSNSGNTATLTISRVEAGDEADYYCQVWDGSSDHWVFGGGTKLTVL"
attribute_measured = "kon"
units_text = "M⁻¹ s⁻¹"
value_reported = 194000

[[record]]
binder = "NINA-0460.0128 (antibody, V domains shown) VH: EVQLVESGGGFVQPGGSLRLSCAVSGFTFNSYWMSWVRQAPGKGLEWVANINQDGSEKFYVASVKGRFTMSRDNAKKSVYVQMNSLRAEDTAVYYCAREGYSSSQYYGMDVWGQGTTVTVSS VL: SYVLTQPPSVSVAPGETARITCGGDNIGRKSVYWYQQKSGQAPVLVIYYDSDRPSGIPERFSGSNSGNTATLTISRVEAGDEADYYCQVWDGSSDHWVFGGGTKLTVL"
attribute_measured = "kon"
units_text = "M⁻¹ s⁻¹"
value_reported = 175000

[[record]]
binder = "NINA-0436.0128 (antibody, V domains shown) VH: EVQLVESGGGFVQPGGSLRLSCAVSGFTFNSYWMSWVRQAPGKGLEWVANINQDGSEKFYVASVKGRFTMSRDNAKKSVYVQMNSLRAEDTAVYYCAREGYSSISYYGMDVWGQGTTVTVSS VL: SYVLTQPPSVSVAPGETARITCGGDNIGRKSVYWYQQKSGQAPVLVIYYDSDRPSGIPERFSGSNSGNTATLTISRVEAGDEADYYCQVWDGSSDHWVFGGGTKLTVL"
attribute_measured = "kon"
units_text = "M⁻¹ s⁻¹"
value_reported = 246000

